Could you please report measured inhibition at 1 µM for the items listed next?
target: dopamine (DA) reuptake sites (Rattus norvegicus); construct: Striatal tissue from the brains of male Charles River rats weighing 150-250 g; from tissue; host or cells: rat brain striatum (crude synaptosomes in A1, washed membranes in A4); test: displacement of [3H]GBR 12935 from dopamine reuptake sites, striatal membranes; type: binding; conditions: 10^-6 M test compound, [3H]GBR 12935 1 nM, one test only, read-out: DA uptake (% displacement of specific binding of tritiated ligand)
Structures can show the parent of a compound that is named as a salt.
Give bare numbers, in %.

Completed entries (count: 3):
COMPOUND | EXPERIMENTAL TARGET | inhibition at 1 µM (%)
Cc1ccccc1N=c1scc(C2(c3ccc4ccccc4c3)CCC2)n1-c1ccccc1C [Example 51, hydrobromide] | dopamine (DA) reuptake sites (Rattus norvegicus) | 69
c1ccc2cc(C3(c4csc(=NCC5CC5)n4CC4CC4)CCC3)ccc2c1 [Example 43, hydrobromide] | dopamine (DA) reuptake sites (Rattus norvegicus) | 113
FC(F)(F)c1cccc(N=c2scc(C3(c4ccc(Cl)c(Cl)c4)CCC3)n2-c2cccc(C(F)(F)F)c2)c1 [Example 30, hydrobromide] | dopamine (DA) reuptake sites (Rattus norvegicus) | 79

Note: attention shifts to another entry.
I have this compound here, c1cncc(CN=c2scc(C3(c4ccc5ccccc5c4)CCC3)n2Cc2cccnc2)c1 [Example 47, hydrobromide] , and I need its recorded inhibition at 1 µM. 109

* * *

molecular target: 5-hydroxytryptamine (5-HT) reuptake sites (Rattus norvegicus, UniProt P31652); construct: Frontal cortical tissue from the brains of male Sprague-Dawley rats; from tissue; host or cells: rat brain frontal cortex (crude synaptosomes in A2, washed membranes in A5); assay: displacement of [3H]paroxetine from 5-HT reuptake sites, frontal cortical membranes; format: binding; conditions: 10^-6 M test compound, [3H]paroxetine 30 pM, one test only, read-out: 5-HT uptake (% displacement of specific binding of tritiated ligand)
Sequence (P31652 whole entry): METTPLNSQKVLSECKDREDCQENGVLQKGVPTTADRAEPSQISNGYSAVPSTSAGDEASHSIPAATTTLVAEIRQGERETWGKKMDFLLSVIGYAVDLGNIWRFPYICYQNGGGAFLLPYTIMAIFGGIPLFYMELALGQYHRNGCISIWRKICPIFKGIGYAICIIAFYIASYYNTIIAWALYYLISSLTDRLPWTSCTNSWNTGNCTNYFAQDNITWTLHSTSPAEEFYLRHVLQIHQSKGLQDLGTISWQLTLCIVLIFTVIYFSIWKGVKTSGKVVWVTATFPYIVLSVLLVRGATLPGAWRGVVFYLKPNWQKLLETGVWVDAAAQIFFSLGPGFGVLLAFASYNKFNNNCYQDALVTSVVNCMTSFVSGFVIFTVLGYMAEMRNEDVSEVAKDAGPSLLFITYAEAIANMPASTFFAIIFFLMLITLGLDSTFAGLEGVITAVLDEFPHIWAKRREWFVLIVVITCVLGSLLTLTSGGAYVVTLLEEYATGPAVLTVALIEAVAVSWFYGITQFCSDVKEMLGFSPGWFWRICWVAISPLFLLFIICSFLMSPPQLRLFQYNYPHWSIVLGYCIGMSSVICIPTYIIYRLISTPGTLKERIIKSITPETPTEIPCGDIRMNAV
Counter-ions that a name gives are not always drawn.
Record form. Attribute: inhibition at 1 µM. Fill in for each entry.
Express your answer as a number followed by its unit.

Sample records with inhibition at 1 µM:
COMPOUND | RECORDED RESULT
CC(C)(C1=CSC2=NCCN12)c1ccc(Cl)c(Cl)c1 [Example 11, hydrobromide] | 57%
C1=C(C2(c3cc4ccccc4s3)CCC2)N2CCN=C2S1 [Example 12, hydrobromide] | 77%
Fc1cccc(C2(C3=CSC4=NCCN34)CCC2)c1 [Example 75, hydrobromide] | 53%

Form field - read-out: inhibition at 1 µM; system: 5-hydroxytryptamine (5-HT) reuptake sites (Rattus norvegicus, UniProt P31652); submitted item: Fc1ccc(CN=c2scc(C3(c4ccc5ccccc5c4)CCC3)n2Cc2ccc(F)cc2)cc1 [Example 45, hydrobromide] 59%

* * *

biological target: dopamine (DA) reuptake sites (Rattus norvegicus); construct: Striatal tissue from the brains of male Charles River rats weighing 150-250 g; from tissue; host or cells: rat brain striatum (crude synaptosomes in A1, washed membranes in A4); assay: displacement of [3H]GBR 12935 from dopamine reuptake sites, striatal membranes; assay type: binding; conditions: 10^-6 M test compound, [3H]GBR 12935 1 nM, one test only, read-out: DA uptake (% displacement of specific binding of tritiated ligand)
Counter-ions that a name gives are not always drawn.
MEASURED ATTRIBUTE: inhibition at 1 µM

Would you please look over these solved cases?
COMPOUND | EXPERIMENTAL TARGET | inhibition at 1 µM
CCCN=c1scc(C2(c3ccc(Cl)c(Cl)c3)CCC2)n1CCC [Example 16, hydrobromide] | dopamine (DA) reuptake sites (Rattus norvegicus) | 116%
c1ccc2cc(C3(c4csc(=NC5CCCC5)n4C4CCCC4)CCC3)ccc2c1 [Example 53, hydrobromide] | dopamine (DA) reuptake sites (Rattus norvegicus) | 80%
Clc1ccc(C2(c3csc(=NCCc4ccccc4)n3CCc3ccccc3)CCC2)cc1 [Example 64, hydrobromide] | dopamine (DA) reuptake sites (Rattus norvegicus) | 102%

Now take the following compound into account.
Item Clc1ccc(C2(c3csc(=NCc4ccco4)n3Cc3ccco3)CCC2)cc1Cl [Example 26, hydrobromide] has what recorded inhibition at 1 µM? 116%

* * *

Provide the reported Ki of each item.
target: dopamine (DA) reuptake sites (Rattus norvegicus, UniProt P23977); construct: Striatal tissue from the brains of male Charles River rats weighing 150-250 g; assay: inhibition of [3H]dopamine uptake in vitro, striatal synaptosomes; settings: [3H]dopamine 2.5 nM, means of three independent determinations
Sequence (P23977 whole entry): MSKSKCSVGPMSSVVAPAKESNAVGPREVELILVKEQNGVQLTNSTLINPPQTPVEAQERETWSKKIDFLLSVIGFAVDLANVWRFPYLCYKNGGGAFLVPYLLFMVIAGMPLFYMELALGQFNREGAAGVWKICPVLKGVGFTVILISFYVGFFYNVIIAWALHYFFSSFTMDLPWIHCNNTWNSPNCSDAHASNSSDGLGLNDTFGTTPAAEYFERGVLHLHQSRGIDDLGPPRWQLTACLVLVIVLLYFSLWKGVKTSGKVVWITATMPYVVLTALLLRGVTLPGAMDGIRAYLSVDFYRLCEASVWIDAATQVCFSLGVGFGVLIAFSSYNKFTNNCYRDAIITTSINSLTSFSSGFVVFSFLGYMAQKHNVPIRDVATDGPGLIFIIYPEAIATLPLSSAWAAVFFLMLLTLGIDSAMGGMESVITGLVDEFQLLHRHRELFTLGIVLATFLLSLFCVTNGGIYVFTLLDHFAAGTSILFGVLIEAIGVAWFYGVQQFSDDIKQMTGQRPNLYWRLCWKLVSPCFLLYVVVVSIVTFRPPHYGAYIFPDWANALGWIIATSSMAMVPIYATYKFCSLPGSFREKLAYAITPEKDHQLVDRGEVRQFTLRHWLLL
Counter-ions that a name gives are not always drawn.
Numbers only, in nM.

Example entries begin here.
COMPOUND | RECORDED RESULT
Clc1ccc(C2(C3=CSC4=NCCN34)CCC2)cc1Cl [Example 1, hydrobromide] | 9.2
Clc1ccc(C2(C3=CSC4=NCCN34)CCC2)cc1 [Example 3, hydrobromide] | 79
Clc1ccc(C2(C3=CSC4=NCCCN34)CCC2)cc1Cl [Example 4, hydrobromide] | 9.5

Answer for every listed entry: what is its Ki? The entries follow.
1. C1=C(C2(c3ccc4ccccc4c3)CCC2)N2CCN=C2S1 [Example 5, hydrobromide]
2. Clc1ccc(C2(C3=CSC4=NCCCN34)CCC2)cc1 [Example 2, hydrobromide]

1: 5.9; 2: 104

* * *

target: noradrenaline (NA) reuptake sites (Rattus norvegicus, UniProt Q63380); construct: Frontal cortical tissue from the brains of male Sprague-Dawley rats; from tissue; host or cells: rat brain frontal cortex (crude synaptosomes in A3, washed membranes in A6); assay: displacement of [3H]nisoxetine from noradrenaline reuptake sites, frontal cortical membranes; conditions: 10^-6 M test compound, [3H]nisoxetine 0.6 nM, one test only, read-out: NA uptake (% displacement of specific binding of tritiated ligand)
Sequence (Q63380 1-617): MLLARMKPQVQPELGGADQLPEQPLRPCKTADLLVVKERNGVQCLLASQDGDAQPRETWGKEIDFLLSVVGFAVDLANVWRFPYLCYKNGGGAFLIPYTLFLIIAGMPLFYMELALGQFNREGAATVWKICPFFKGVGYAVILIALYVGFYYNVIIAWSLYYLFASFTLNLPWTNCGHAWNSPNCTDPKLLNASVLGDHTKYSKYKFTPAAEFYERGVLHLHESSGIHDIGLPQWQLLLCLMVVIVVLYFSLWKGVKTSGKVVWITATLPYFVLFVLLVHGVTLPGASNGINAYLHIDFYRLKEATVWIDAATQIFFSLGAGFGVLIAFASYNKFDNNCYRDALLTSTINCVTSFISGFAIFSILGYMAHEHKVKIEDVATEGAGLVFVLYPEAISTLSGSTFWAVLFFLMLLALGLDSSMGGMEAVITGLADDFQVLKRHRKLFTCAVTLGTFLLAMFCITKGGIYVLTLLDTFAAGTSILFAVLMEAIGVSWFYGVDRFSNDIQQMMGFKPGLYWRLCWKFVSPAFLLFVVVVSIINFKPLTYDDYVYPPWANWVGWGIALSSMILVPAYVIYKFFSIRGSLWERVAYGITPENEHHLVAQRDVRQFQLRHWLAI
Counter-ions that a name gives are not always drawn.
Assign inhibition at 1 µM to each entry below.

COMPOUND | inhibition at 1 µM
c1ccc(CN=c2scc(C3(c4ccc5ccccc5c4)CCC3)n2Cc2ccccc2)cc1 [Example 44, hydrobromide] | < 50%

I need inhibition at 1 µM for every entry listed below, if you could help.
1. c1cncc(CN=c2scc(C3(c4ccc5ccccc5c4)CCC3)n2Cc2cccnc2)c1 [Example 47, hydrobromide]
2. CCCCN=c1scc(C2(c3ccc(Cl)cc3)CCCC2)n1CCCC [Example 60, hydrobromide]
3. CCOc1ccc(N=c2scc(C3(c4ccc5ccccc5c4)CCC3)n2-c2ccc(OCC)cc2)cc1 [Example 54, hydrobromide]
4. CCOc1ccc(N=c2scc(C3(c4ccc(Cl)c(Cl)c4)CCC3)n2-c2ccc(OCC)cc2)cc1 [Example 32, hydrobromide]

["92%", "< 50%", "< 50%", "< 50%"]

Value sought for every listed compound: inhibition at 1 µM.
1. c1coc(CN=c2scc(C3(c4ccc5ccccc5c4)CCC3)n2Cc2ccco2)c1 [Example 48]
2. Cc1ccc(N=c2scc(C3(c4ccc5ccccc5c4)CCC3)n2-c2ccc(C)cc2)cc1 [Example 50, hydrobromide]
3. Clc1ccc(C2=C(C3(c4ccc(Cl)c(Cl)c4)CCC3)N3CCN=C3S2)cc1 [Example 10, hydrobromide]
4. Clc1ccc(C2(C3=C(c4ccccc4)SC4=NCCN43)CCC2)cc1Cl [Example 9, hydrobromide]
5. CC(C)CN=c1scc(C2(c3ccc(Cl)c(Cl)c3)CCC2)n1CC(C)C [Example 19, hydrobromide]
6. CC(C)(C1=CSC2=NCCN12)c1ccc(Cl)cc1 [Example 73, hydrobromide]
7. COc1ccc(CCN=c2scc(C3(c4ccc(Cl)c(Cl)c4)CCC3)n2CCc2ccc(OC)c(OC)c2)cc1OC [Example 33, hydrobromide]

1. < 50%
2. < 50%
3. < 50%
4. < 50%
5. < 50%
6. < 50%
7. < 50%

Dear reader, for each entry below, please note its inhibition at 1 µM.
1. CN=c1scc(C2(c3ccc(Cl)c(Cl)c3)CCC2)n1C [Example 14, hydrobromide]
2. C1=C(C2(c3ccccc3)CCCCC2)N2CCN=C2S1 [Example 72, hydrobromide]

["80%", "< 50%"]

# batch: return inhibition at 1 µM for each of the 4 compounds below
1. Cc1ccc(N=c2scc(C3(c4ccc(Cl)c(Cl)c4)CCC3)n2-c2ccc(C)cc2C)c(C)c1 [Example 31, hydrobromide]
2. CCN=c1scc(C2(c3ccc(Cl)c(Cl)c3)CCC2)n1CC [Example 15, hydrobromide]
3. Fc1ccc(CN=c2scc(C3(c4ccc(Cl)c(Cl)c4)CCC3)n2Cc2ccc(F)cc2)cc1 [Example 23, hydrobromide]
4. Clc1ccc(C2(C3=CSC4=NCCN34)CCCC2)cc1 [Example 71, hydrobromide]

< 50%
99%
< 50%
76%

* * *

target: 5-hydroxytryptamine (5-HT) reuptake sites (Rattus norvegicus, UniProt P31652); construct: Frontal cortical tissue from the brains of male Sprague-Dawley rats; from tissue; host or cells: rat brain frontal cortex (crude synaptosomes in A2, washed membranes in A5); experiment: inhibition of [3H]5-HT uptake in vitro, frontal cortical synaptosomes; assay type: biochemical; conditions: rat frontal cortical synaptosomes, [3H]5-HT 2 nM; means of three independent determinations; read-out: 5-HT uptake (Ki)
Counter-ions that a name gives are not always drawn.
MEASURED ATTRIBUTE: Ki (nM)
Numbers only, in nM.

Report Ki for Clc1ccc(C2(C3=CSC4=NCCN34)CCC2)cc1Cl [Example 1, hydrobromide] please. 120
